All values here come from patent US20160046579A1.

molecular target: PKR R510Q (Homo sapiens, UniProt P30613, R510Q); assay: PKR Mutant Assay, dose response (AC50), PKR R510Q; assay type: biochemical; settings: PKR R510Q mutant enzyme
Sequence (P30613 whole entry R510Q): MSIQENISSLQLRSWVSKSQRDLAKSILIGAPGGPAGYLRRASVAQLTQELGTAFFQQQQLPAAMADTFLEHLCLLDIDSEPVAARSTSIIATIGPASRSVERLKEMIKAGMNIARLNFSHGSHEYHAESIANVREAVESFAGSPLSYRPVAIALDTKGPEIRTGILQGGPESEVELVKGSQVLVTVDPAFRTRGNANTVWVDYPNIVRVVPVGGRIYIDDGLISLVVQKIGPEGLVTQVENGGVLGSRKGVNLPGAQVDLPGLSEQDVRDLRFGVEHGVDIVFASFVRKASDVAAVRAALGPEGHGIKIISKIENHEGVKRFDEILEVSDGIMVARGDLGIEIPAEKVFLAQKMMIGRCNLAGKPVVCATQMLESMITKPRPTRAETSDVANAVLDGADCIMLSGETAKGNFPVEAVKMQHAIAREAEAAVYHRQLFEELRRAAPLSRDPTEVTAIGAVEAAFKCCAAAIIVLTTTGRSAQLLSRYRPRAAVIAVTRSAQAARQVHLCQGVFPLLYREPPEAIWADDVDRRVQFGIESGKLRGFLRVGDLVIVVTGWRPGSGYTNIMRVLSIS
Recorded AC50 for the following compounds

For orientation, consider the following solved cases.
compound: O=C1NCCC1CC1(O)CCN(C(=O)c2ccc(NS(=O)(=O)c3cccc4scnc34)cc2)CC1 (centres unmarked)
test_value: > 10000 nM
//
compound: CS(=O)(=O)CCC1(O)CCN(C(=O)c2ccc(NS(=O)(=O)c3cccc4nccnc34)cc2)CC1
test_value: > 10000 nM
//
compound: CCS(=O)(=O)CC1(O)CCN(C(=O)c2ccc(NS(=O)(=O)c3cccc4nccnc34)cc2)CC1
test_value: > 10000 nM
//
compound: CN1CCC(CC2(O)CCN(C(=O)c3ccc(NS(=O)(=O)c4cccc5scnc45)cc3)CC2)C1=O (centres unmarked)
test_value: > 10000 nM
//
compound: CC(F)(F)CCC1(O)CCN(C(=O)c2ccc(NS(=O)(=O)c3cccc4scnc34)cc2F)CC1
test_value: 101 to 1000 nM
//
compound: CC(F)(F)CCC1(O)CCN(C(=O)c2ccc(NS(=O)(=O)c3cc(F)cc4sc(N)nc34)cc2F)CC1
test_value: 101 to 1000 nM
//
compound: Cc1noc(C)c1CC1(O)CCN(C(=O)c2ccc(NS(=O)(=O)c3cccc4scnc34)cc2)CC1
test_value: 101 to 1000 nM
//
compound: Nc1cnc2c(S(=O)(=O)Nc3ccc(C(=O)N4CCC(O)(CCCC(F)(F)F)CC4)cc3)cccc2n1
test_value: < 100 nM
//
compound: O=C(c1ccc(NS(=O)(=O)c2cccc3nccnc23)cc1)N1CCC(O)(C2CCC(O)CC2)CC1 (centres unmarked)
test_value: 101 to 1000 nM
//
compound: CC1(O)CCC(C2(O)CCN(C(=O)c3ccc(NS(=O)(=O)c4cccc5scnc45)cc3)CC2)CC1 (centres unmarked)
test_value: 1010 to 10000 nM

Q: Quick check: AC50 on PKR R510Q (Homo sapiens, UniProt P30613, R510Q), item CCn1cc(CC2(O)CCN(C(=O)c3ccc(NS(=O)(=O)c4cccc5nccnc45)cc3)CC2)cn1 ?
Result: > 10000 nM

Q: Quick check: AC50 on PKR R510Q (Homo sapiens, UniProt P30613, R510Q), item CC(C)CC1(O)CCN(C(=O)c2ccc(NS(=O)(=O)c3cnc(O)c4cccnc34)cc2)CC1 ?
Result: > 10000 nM

Q: Quick check: AC50 on PKR R510Q (Homo sapiens, UniProt P30613, R510Q), item O=C(c1ccc(NS(=O)(=O)c2cccc3scnc23)cc1)N1CCC(O)(c2ncc(Cl)s2)CC1 ?
Result: > 10000 nM

----------
Recorded AC50 for the following molecules
biological target: PKR R510Q (Homo sapiens, UniProt P30613, R510Q); test: PKR Mutant Assay, dose response (AC50), PKR R510Q; assay type: biochemical; settings: PKR R510Q mutant enzyme

For orientation, consider the following solved cases.
molecule: CC(F)(F)CCC1(O)CCN(C(=O)c2ccc(NS(=O)(=O)c3cccc4scnc34)cc2OC(F)F)CC1 [Compound 473]
AC50: 101 to 1000 nM

molecule: O=C(c1ccc(NS(=O)(=O)c2cccc3scnc23)cc1)N1CCC(O)(C2CCC(O)CC2)CC1 (centres unmarked) [Compound 501]
AC50: 101 to 1000 nM

molecule: Cn1ccc(CC2(O)CCN(C(=O)c3ccc(NS(=O)(=O)c4cccc5nccnc45)cc3)CC2)n1 [Compound 507]
AC50: > 10000 nM

molecule: Cc1cc(C2(O)CCN(C(=O)c3ccc(NS(=O)(=O)c4cccc5scnc45)cc3)CC2)sn1 [Compound 479]
AC50: 101 to 1000 nM

Q: Item under review: Nc1nc(CC2(O)CCN(C(=O)c3ccc(NS(=O)(=O)c4cccc5scnc45)cc3)CC2)cs1 [Compound 485] . Reported AC50?
Result: > 10000 nM

Q: Item under review: CC(C)CC1(OP(=O)(O)O)CCN(C(=O)c2ccc(NS(=O)(=O)c3cccc4nccnc34)cc2)CC1 [Compound 525] . Reported AC50?
Result: > 10000 nM

Q: Item under review: CC(F)(F)CCC1(O)CCN(C(=O)c2ccc(NS(=O)(=O)c3cccc4nc(N)cnc34)cc2)CC1 [Compound 486] . Reported AC50?
Result: 101 to 1000 nM

Q: Item under review: CCn1cc(CC2(O)CCN(C(=O)c3ccc(NS(=O)(=O)c4cccc5scnc45)cc3)CC2)cn1 [Compound 506] . Reported AC50?
Result: > 10000 nM

Q: Item under review: Cn1ccc(C2(O)CCN(C(=O)c3ccc(NS(=O)(=O)c4cccc5scnc45)cc3)CC2)n1 [Compound 450] . Reported AC50?
Result: > 10000 nM

----------
molecular target: UniProt P30613; assay: wt PKR cell based assay
Recorded AC50 for the following compounds

molecular_string: CC(C)CC1(OP(=O)(O)O)CCN(C(=O)c2ccc(NS(=O)(=O)c3cccc4nccnc34)cc2)CC1
subject_of_test: UniProt P30613
AC50: 101 to 1000 nM
--
molecular_string: O=C(c1ccc(NS(=O)(=O)c2cccc3scnc23)cc1)N1CCC(O)(c2sncc2Cl)CC1
subject_of_test: UniProt P30613
AC50: < 100 nM
--
molecular_string: O=C(c1ccc(NS(=O)(=O)c2cccc3scnc23)cc1)N1CCC(O)(Cc2nc(Cl)cs2)CC1
subject_of_test: UniProt P30613
AC50: 101 to 1000 nM
--
molecular_string: Cc1nscc1CC1(O)CCN(C(=O)c2ccc(NS(=O)(=O)c3cccc4nccnc34)cc2)CC1
subject_of_test: UniProt P30613
AC50: < 100 nM
--
molecular_string: O=C(c1ccc(NS(=O)(=O)c2cccc3scnc23)cc1)N1CCC(O)(Cc2cn[nH]c2)CC1
subject_of_test: UniProt P30613
AC50: 101 to 1000 nM

Q: Item under review: CC(C)CC1(O)CCN(C(=O)c2ccc(NS(=O)(=O)c3cncc4cccnc34)cc2)CC1 . Reported AC50?
Result: < 100 nM

Q: Item under review: CC(C)CC1(OP(=O)(O)O)CCN(C(=O)c2ccc(NS(=O)(=O)c3cccc4scnc34)cc2)CC1 . Reported AC50?
Result: 1010 to 10000 nM

----------
target: PKR R532W (Homo sapiens, UniProt P30613, R532W); test: PKR Mutant Assay, dose response (AC50), PKR R532W; type: biochemical; details: PKR R532W mutant enzyme
Sequence (P30613 whole entry R532W): as the sequence (P30613 whole entry R510Q) above, with Q510R, R532W counted along it
Recorded AC50 for the following compounds

For orientation, consider the following solved cases.
compound: O=C(c1ccc(NS(=O)(=O)c2cccc3scnc23)cc1)N1CCC(O)(Cc2cn[nH]c2)CC1 [Compound 498]
subject_of_test: PKR R532W (Homo sapiens, UniProt P30613, R532W)
AC50: < 0.1 µM

compound: CC(C)CC1(OC(=O)OCOP(=O)(O)O)CCN(C(=O)c2ccc(NS(=O)(=O)c3cccc4nccnc34)cc2)CC1 [Compound 527]
subject_of_test: PKR R532W (Homo sapiens, UniProt P30613, R532W)
AC50: 0.101 to 1 µM

compound: CC(F)(F)CCC1(O)CCN(C(=O)c2ccc(NS(=O)(=O)c3cc(F)cc4sc(N)nc34)cc2C#N)CC1 [Compound 491]
subject_of_test: PKR R532W (Homo sapiens, UniProt P30613, R532W)
AC50: 0.101 to 1 µM

compound: Nc1nc(CC2(O)CCN(C(=O)c3ccc(NS(=O)(=O)c4cccc5scnc45)cc3)CC2)cs1 [Compound 485]
subject_of_test: PKR R532W (Homo sapiens, UniProt P30613, R532W)
AC50: 1.01 to 10 µM

compound: CC(F)(F)CCC1(O)CCN(C(=O)c2ccc(NS(=O)(=O)c3cccc4scnc34)cc2F)CC1 [Compound 469]
subject_of_test: PKR R532W (Homo sapiens, UniProt P30613, R532W)
AC50: 0.101 to 1 µM

compound: Cc1cc(C2(O)CCN(C(=O)c3ccc(NS(=O)(=O)c4cccc5nccnc45)cc3)CC2)sn1 [Compound 518]
subject_of_test: PKR R532W (Homo sapiens, UniProt P30613, R532W)
AC50: < 0.1 µM

The record that follows has no AC50 shown yet.
Q: Quick check: AC50 on PKR R532W (Homo sapiens, UniProt P30613, R532W), item CN1CCC(C2(CO)CCN(C(=O)c3ccc(NS(=O)(=O)c4cccc5scnc45)cc3)CC2)C1=O (stereo not shown) [Compound 487] ?
Result: 1.01 to 10 µM

----------
target: wt PKR (Homo sapiens, UniProt P30613); experiment: PKR Mutant Assay, dose response (AC50), wild type PKR enzyme; assay type: biochemical; conditions: wild type PKR enzyme
Sequence (P30613 whole entry): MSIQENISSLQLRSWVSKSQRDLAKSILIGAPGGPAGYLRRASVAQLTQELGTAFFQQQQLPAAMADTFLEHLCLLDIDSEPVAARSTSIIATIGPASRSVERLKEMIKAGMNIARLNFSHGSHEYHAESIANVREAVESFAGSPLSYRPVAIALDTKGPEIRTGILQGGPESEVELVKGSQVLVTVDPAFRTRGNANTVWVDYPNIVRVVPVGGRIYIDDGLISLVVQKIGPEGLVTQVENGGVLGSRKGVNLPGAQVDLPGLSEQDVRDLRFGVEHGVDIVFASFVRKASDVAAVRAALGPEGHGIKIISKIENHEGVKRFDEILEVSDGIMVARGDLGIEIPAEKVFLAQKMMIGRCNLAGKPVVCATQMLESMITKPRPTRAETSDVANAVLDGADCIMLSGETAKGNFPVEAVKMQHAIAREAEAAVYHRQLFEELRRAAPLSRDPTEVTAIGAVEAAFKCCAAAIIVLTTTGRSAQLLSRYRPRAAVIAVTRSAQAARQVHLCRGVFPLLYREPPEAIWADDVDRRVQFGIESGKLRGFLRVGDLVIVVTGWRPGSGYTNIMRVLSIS
quantity: AC50

For orientation, consider the following solved cases.
compound: Cc1n[nH]c(C)c1CC1(O)CCN(C(=O)c2ccc(NS(=O)(=O)c3cccc4nccnc34)cc2)CC1
test_value: < 0.1 µM
//
compound: O=C(c1ccc(NS(=O)(=O)c2cccc3scnc23)cc1)N1CCC(O)(Cc2nc(Cl)cs2)CC1
test_value: < 0.1 µM
//
compound: Cc1nscc1CC1(O)CCN(C(=O)c2ccc(NS(=O)(=O)c3cccc4nccnc34)cc2)CC1
test_value: < 0.1 µM
//
compound: O=C(c1ccc(NS(=O)(=O)c2cccc3scnc23)cc1)N1CCC(O)(c2sncc2Cl)CC1
test_value: < 0.1 µM
//
compound: O=C(c1ccc(NS(=O)(=O)c2cccc3scnc23)cc1)N1CCC(O)(c2ncc(Cl)s2)CC1
test_value: 1.01 to 10 µM
//
compound: Cc1cc(C2(O)CCN(C(=O)c3ccc(NS(=O)(=O)c4cccc5scnc45)cc3)CC2)sn1
test_value: < 0.1 µM

Q: Quick check: AC50 on wt PKR (Homo sapiens, UniProt P30613), item CC(C)CC1(O)CCN(C(=O)c2ccc(NS(=O)(=O)c3cccc4ncc(O)nc34)cc2)CC1 ?
Result: > 10 µM

Q: Quick check: AC50 on wt PKR (Homo sapiens, UniProt P30613), item CC(F)(F)CCC1(O)CCN(C(=O)c2ccc(NS(=O)(=O)c3cc(F)cc4sc(N)nc34)cc2C#N)CC1 ?
Result: 0.101 to 1 µM

Q: Quick check: AC50 on wt PKR (Homo sapiens, UniProt P30613), item CN1CCC(CC2(O)CCN(C(=O)c3ccc(NS(=O)(=O)c4cccc5scnc45)cc3)CC2)C1=O (centres unmarked) ?
Result: 1.01 to 10 µM

Q: Quick check: AC50 on wt PKR (Homo sapiens, UniProt P30613), item CC(F)(F)CCC1(O)CCN(C(=O)c2ccc(NS(=O)(=O)c3cc(F)cc4sc(N)nc34)cc2F)CC1 ?
Result: < 0.1 µM

Q: Quick check: AC50 on wt PKR (Homo sapiens, UniProt P30613), item CC(C)(O)CCCC1(O)CCN(C(=O)c2ccc(NS(=O)(=O)c3cccc4scnc34)cc2)CC1 ?
Result: 1.01 to 10 µM
